Note to self: these molecules have pIC50 reported for Tyrosine-protein kinase Lck (Homo sapiens, UniProt P06239) in various publications.
pIC50: −log10 of the molar value.

Here's what some known entries look like.
[[record]]
structure_smiles = "CN(C(=O)/C=C/CN(C)C1CC1)c1cccc(-n2c(Cl)c(-c3ccc(Cl)cc3)c3c(N)ncnc32)c1"
experimental_system = "Tyrosine-protein kinase Lck (Homo sapiens, UniProt P06239)"
observed_result = "5.00 to 6.00"

[[record]]
structure_smiles = "COCCOc1ccc(-n2c(=O)n(-c3ccc(C)c(OC)c3)c3c(N)ncnc32)cc1N(C)C(=O)/C=C/CN(C)C"
experimental_system = "Tyrosine-protein kinase Lck (Homo sapiens, UniProt P06239)"
observed_result = "< 5.00"

[[record]]
structure_smiles = "O=C(NCC1CC1)c1cc2n(c1)CCc1c(NC(=O)c3c(Cl)cccc3Cl)n[nH]c1-2"
experimental_system = "Tyrosine-protein kinase Lck (Homo sapiens, UniProt P06239)"
observed_result = 5.38

[[record]]
structure_smiles = "COc1cc(-c2nn(-c3cccc(N(C)C(=O)/C=C/CN(C)C4CC4)c3)c3ncnc(N)c23)ccc1C"
experimental_system = "Tyrosine-protein kinase Lck (Homo sapiens, UniProt P06239)"
observed_result = "6.00 to 7.00"


--- query ---
// map COC(=O)NCCNc1nccc(-c2sc(-c3ccccc3)nc2-c2cccc(NS(=O)(=O)c3c(F)cccc3F)c2F)n1 to recorded pIC50 (system: Tyrosine-protein kinase Lck (Homo sapiens, UniProt P06239))
< 6.00
